# EXPERIMENTAL_TARGET: Tyrosine-protein phosphatase non-receptor type 1 (Homo sapiens, UniProt P18031)
# Sequence (P18031 whole entry): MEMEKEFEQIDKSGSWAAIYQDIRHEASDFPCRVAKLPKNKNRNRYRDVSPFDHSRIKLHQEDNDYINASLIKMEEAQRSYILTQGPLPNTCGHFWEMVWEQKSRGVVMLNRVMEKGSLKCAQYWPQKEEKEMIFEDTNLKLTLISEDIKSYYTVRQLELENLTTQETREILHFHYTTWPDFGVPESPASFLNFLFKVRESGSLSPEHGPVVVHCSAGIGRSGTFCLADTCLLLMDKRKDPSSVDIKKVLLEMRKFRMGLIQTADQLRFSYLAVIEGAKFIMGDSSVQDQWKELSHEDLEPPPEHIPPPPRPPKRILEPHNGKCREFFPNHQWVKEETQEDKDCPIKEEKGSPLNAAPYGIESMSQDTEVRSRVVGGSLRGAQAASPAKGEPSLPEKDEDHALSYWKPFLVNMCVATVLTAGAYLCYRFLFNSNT
# PROTOCOL_TEXT: Inhibition of human recombinant PTP1B expressed in Escherichia coli TB1 using p-nitrophenylphosphate as substrate
Parameter: IC50. Scope: all listed entries.
PARAMETER: IC50 (µM)

O=C(O)c1ccc(CN2C(=O)/C(=C/c3ccc(OCCc4ccccc4)cc3)S/C2=N\c2ccccc2)cc1 = 1.5
COc1ccc(/C=C2\SC(=O)N(Cc3ccc(C(=O)O)cc3)C2=O)cc1OCCc1ccccc1 = 24.6
COc1cc(/C=C2\S/C(=N\c3ccccc3)N(Cc3ccc(C(=O)O)cc3)C2=O)ccc1OCCc1ccccc1 = 2.8
COc1cc(/C=C2\SC(=O)N(Cc3ccc(C(=O)O)cc3)C2=O)ccc1OCc1ccccc1 = 4.6
O=C(O)c1ccc(CN2C(=O)S/C(=C\c3cccc(OCCc4ccccc4)c3)C2=O)cc1 = 9.5

---

# EXPERIMENTAL_TARGET: Tyrosine-protein phosphatase non-receptor type 1 (Mus musculus) (UniProt P35821)
# Sequence (whole entry): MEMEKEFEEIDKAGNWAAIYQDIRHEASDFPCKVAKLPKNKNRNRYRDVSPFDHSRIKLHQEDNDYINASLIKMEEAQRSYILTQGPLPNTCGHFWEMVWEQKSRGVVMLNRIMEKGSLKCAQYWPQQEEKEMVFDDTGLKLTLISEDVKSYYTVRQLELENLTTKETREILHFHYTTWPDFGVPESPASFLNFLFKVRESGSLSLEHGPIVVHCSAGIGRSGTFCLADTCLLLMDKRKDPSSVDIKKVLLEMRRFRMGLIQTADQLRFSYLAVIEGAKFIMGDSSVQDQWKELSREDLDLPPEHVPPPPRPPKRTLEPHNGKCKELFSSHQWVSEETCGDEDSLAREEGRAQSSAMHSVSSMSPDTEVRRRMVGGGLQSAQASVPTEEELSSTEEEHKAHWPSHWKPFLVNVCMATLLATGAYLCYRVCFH
# PROTOCOL_TEXT: Inhibition of PTP1B in mouse C2C12 cells assessed as increase of 2-deoxy-D-1,2-[3H]-glucose at 25 uM after 90 mins by beta-scintillation counting
# Type: cell-based
Activity calls are given as the source filed them. No cut-off for these calls is given here.
Outcomes: 1 for active, 0 for inactive

O=C(O)c1ccc(CN2C(=O)/C(=C/c3ccc(OCc4ccccc4)c(F)c3)S/C2=N\c2ccccc2)cc1 = 1
COc1cc(/C=C2\S/C(=N\c3ccccc3)N(Cc3ccc(C(=O)O)cc3)C2=O)ccc1OCc1ccccc1 = 0
O=C(O)c1ccc(CN2C(=O)S/C(=C\c3cccc(OCCc4ccccc4)c3)C2=O)cc1 = 1
COc1cc(/C=C2\SC(=O)N(Cc3ccc(C(=O)O)cc3)C2=O)ccc1OCCc1ccccc1 = 1
O=C(O)c1ccc(CN2C(=O)/C(=C/c3cccc(OCCc4ccccc4)c3)S/C2=N\c2ccccc2)cc1 = 0
